protocol: Antiproliferative activity against human Bel7402 cells assessed as inhibition of cell proliferation incubated for 48 hrs by CCK8 assay
Format: functional, cell-based
cond: Bel-7402, 48 h
parameter measured: pIC50
Field pIC50 (float): negative decimal logarithm of the concentration in molar.

O=C(/C=C/c1ccc(Br)cc1)c1ccc(OCc2cn([C@H]3CC(=O)N4C[C@@H]5CCCN6CCC[C@@H]([C@H]56)[C@H]4C3)nn2)cc1 4.64
O=C(/C=C/c1ccc([N+](=O)[O-])cc1)c1ccc(OCc2cn([C@H]3CC(=O)N4C[C@@H]5CCCN6CCC[C@@H]([C@H]56)[C@H]4C3)nn2)cc1 4.79

The value of pIC50 measured for the compound "O=C(/C=C/c1ccccc1Cl)c1ccc(OCc2cn([C@H]3CC(=O)N4C[C@@H]5CCCN6CCC[C@@H]([C@H]56)[C@H]4C3)nn2)cc1" turned out to be 4.66
